This collection of values is drawn from patent US10280163B2.

# TEST_TARGET: Recombinant IDO1 (Homo sapiens, UniProt P14902)
# Construct: His tag (N); made in house; host or cells: E. coli
# Sequence (P14902 whole entry): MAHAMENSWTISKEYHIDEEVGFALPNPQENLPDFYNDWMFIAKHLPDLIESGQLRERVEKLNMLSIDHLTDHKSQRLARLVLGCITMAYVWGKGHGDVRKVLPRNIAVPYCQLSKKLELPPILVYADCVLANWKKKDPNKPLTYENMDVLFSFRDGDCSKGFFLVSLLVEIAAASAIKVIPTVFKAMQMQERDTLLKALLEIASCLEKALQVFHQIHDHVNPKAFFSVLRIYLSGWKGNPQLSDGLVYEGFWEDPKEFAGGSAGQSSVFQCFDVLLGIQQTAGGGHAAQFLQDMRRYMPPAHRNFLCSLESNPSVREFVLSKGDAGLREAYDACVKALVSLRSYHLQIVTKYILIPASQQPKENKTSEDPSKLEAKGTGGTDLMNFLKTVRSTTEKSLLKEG
# PROCEDURE_DETAILS: IDO1 enzymatic assay
# Format: biochemical
# MEASUREMENT_PARAMETERS: Table 1, 5-substituted imidazo[1,5-a]pyridines; 50 nM IDO1, 1.3 mM D-tryptophan; read-out: Enzyme IC50 (nM) IDO1
# Description: Recombinant IDO1 was overexpressed and purified from E. coli cells with an N-terminal His tag. IDO1 enzymatic assay was carried out using a methodology similar to described in the literature (J. Biol. Chem. (1980), 255, 1339-1345.). […] After incubation at 24° C. for 1.5 hours, absorbance of the reaction mixture was continuously read at 321 nm to monitor the formation of N′-formylkynurenine by a FULOstar OMEGA plate reader (BMG LABTECH) for 1 hour. […]
// returns Criterion not met unless IC50 is strictly below 30 nM, in which case Criterion met

| MOLECULE | CLASS_LABEL |
| --- | --- |
| OC(c1c(C(F)(F)F)ccc2cncn12)C1CC1 (stereo not shown) | Criterion not met |
| OC(CCC1CCCCC1)c1c(Cl)ccc2cncn12 (stereo not shown) | Criterion not met |
| OC(CC1CCCCC1)c1cc(Cl)cc2cncn12 (single isomer, unassigned) [Example A102a] | Criterion met |
| OC(c1cc(C(F)(F)F)cc2cncn12)C1CCCCC1 (single isomer, unassigned) [Example A109a] | Criterion met |
| OC(c1c(C2CC2)ccc2cncn12)C1CCCCC1 (single isomer, unassigned) [Example A129b] | Criterion not met |
| OC(c1ccc(F)c2cncn12)C1CCCCC1 (stereo not shown) | Criterion not met |

Q: Hello, I'm reviewing records and need to know if IC50 of OC(c1cccc2cncn12)C1CCCCC1 (stereo not shown) [Example A001] is below 30 nM. Could you check?
Ans: Criterion not met

Q: Hello, I'm reviewing records and need to know if IC50 of OC(CC1CCCCC1)c1c(Cl)c(Cl)cc2cncn12 (single isomer, unassigned) [Example A144b] is below 30 nM. Could you check?
Ans: Criterion met

Q: Hello, I'm reviewing records and need to know if IC50 of OC(CC1CCCCC1)c1c(Br)ccc2cncn12 (single isomer, unassigned) [Example A119b] is below 30 nM. Could you check?
Ans: Criterion not met
